# Procedure summary: Randomized, open-label, single-dose crossover pharmacokinetic study; plasma concentrations by LC-MS/MS, non-compartmental analysis
# Assay type: in vivo, human
# Details: male, human, plasma, po, 5 mg

[
  {
    "Compound": "CCOc1ccc(Cc2cc([C@@H]3O[C@H](CO)[C@@H](O)[C@H](O)[C@H]3O)ccc2Cl)cc1 [dapagliflozin]",
    "Cmax, ng/mL": 168
  },
  {
    "Compound": "CC#CCn1c(N2CCC[C@@H](N)C2)nc2c1c(=O)n(Cc1nc(C)c3ccccc3n1)c(=O)n2C [linagliptin]",
    "Cmax, ng/mL": 4.2
  }
]

###

# Procedure summary: Randomized, open-label, single-dose crossover pharmacokinetic study; plasma concentrations by LC-MS/MS, non-compartmental analysis
# Type: in vivo, human
# Details: male, human, plasma, po, 5 mg
Experimental endpoint: AUC(0-t) (ng·h/mL)

[
  {
    "Compound": "CC#CCn1c(N2CCC[C@@H](N)C2)nc2c1c(=O)n(Cc1nc(C)c3ccccc3n1)c(=O)n2C [linagliptin]",
    "Experimental endpoint": "AUC(0-t)",
    "Experimental value": 157
  },
  {
    "Compound": "CCOc1ccc(Cc2cc([C@@H]3O[C@H](CO)[C@@H](O)[C@H](O)[C@H]3O)ccc2Cl)cc1 [dapagliflozin]",
    "Experimental endpoint": "AUC(0-t)",
    "Experimental value": 466
  }
]

###

Reported AUC(0-inf) values for a set of compounds
# Procedure summary: Randomized, open-label, single-dose crossover pharmacokinetic study; plasma concentrations by LC-MS/MS, non-compartmental analysis
# Format: in vivo, human
# Details: male, human, plasma; IC: co-administered single oral doses of Forxiga 10 mg and Trajenta 5 mg, fasted healthy males; mean ± SD
Experimental endpoint: AUC(0-inf) (ng·h/mL)

[
  {
    "Compound": "CC#CCn1c(N2CCC[C@@H](N)C2)nc2c1c(=O)n(Cc1nc(C)c3ccccc3n1)c(=O)n2C [linagliptin]",
    "Units of measure": "ng·h/mL",
    "Experimental value": 266
  },
  {
    "Compound": "CCOc1ccc(Cc2cc([C@@H]3O[C@H](CO)[C@@H](O)[C@H](O)[C@H]3O)ccc2Cl)cc1 [dapagliflozin]",
    "Units of measure": "ng·h/mL",
    "Experimental value": 500
  }
]

###

# Procedure summary: Randomized, open-label, single-dose crossover pharmacokinetic study; plasma concentrations by LC-MS/MS, non-compartmental analysis
# Assay type: in vivo, human
# Details: male, human, plasma; IC: co-administered single oral doses of Forxiga 10 mg and Trajenta 5 mg, fasted healthy males; median (range)

[
  {
    "Structure smiles string": "CC#CCn1c(N2CCC[C@@H](N)C2)nc2c1c(=O)n(Cc1nc(C)c3ccccc3n1)c(=O)n2C",
    "Tmax [h]": 2.5
  },
  {
    "Structure smiles string": "CCOc1ccc(Cc2cc([C@@H]3O[C@H](CO)[C@@H](O)[C@H](O)[C@H]3O)ccc2Cl)cc1",
    "Tmax [h]": 0.75
  }
]

###

# Procedure summary: Randomized, open-label, single-dose crossover pharmacokinetic study; plasma concentrations by LC-MS/MS, non-compartmental analysis
# Assay type: in vivo, human
# Details: male, human, plasma, po, 5 mg
Experimental endpoint: AUC(0-inf) (ng·h/mL)

[
  {
    "Compound": "CCOc1ccc(Cc2cc([C@@H]3O[C@H](CO)[C@@H](O)[C@H](O)[C@H]3O)ccc2Cl)cc1 [dapagliflozin]",
    "Experimental value": 516
  },
  {
    "Compound": "CC#CCn1c(N2CCC[C@@H](N)C2)nc2c1c(=O)n(Cc1nc(C)c3ccccc3n1)c(=O)n2C [linagliptin]",
    "Experimental value": 268
  }
]

###

# Procedure summary: Randomized, open-label, single-dose crossover pharmacokinetic study; plasma concentrations by LC-MS/MS, non-compartmental analysis
# Assay type: in vivo, human
# Details: male, human, plasma, po, 5 mg

[
  {
    "Structure smiles string": "CCOc1ccc(Cc2cc([C@@H]3O[C@H](CO)[C@@H](O)[C@H](O)[C@H]3O)ccc2Cl)cc1",
    "half-life, h": 12.8
  },
  {
    "Structure smiles string": "CC#CCn1c(N2CCC[C@@H](N)C2)nc2c1c(=O)n(Cc1nc(C)c3ccccc3n1)c(=O)n2C",
    "half-life, h": 54.3
  }
]

###

# Procedure summary: Randomized, open-label, single-dose crossover pharmacokinetic study; plasma concentrations by LC-MS/MS, non-compartmental analysis
# Format: in vivo, human
# Details: male, human, plasma, po, 5 mg
Tmax values, listed per item
Experimental endpoint: Tmax (h)

[
  {
    "Molecule": "CC#CCn1c(N2CCC[C@@H](N)C2)nc2c1c(=O)n(Cc1nc(C)c3ccccc3n1)c(=O)n2C [linagliptin]",
    "Experimental endpoint": "Tmax",
    "Units of measure": "h",
    "Experimental value": 1.5
  },
  {
    "Molecule": "CCOc1ccc(Cc2cc([C@@H]3O[C@H](CO)[C@@H](O)[C@H](O)[C@H]3O)ccc2Cl)cc1 [dapagliflozin]",
    "Experimental endpoint": "Tmax",
    "Units of measure": "h",
    "Experimental value": 0.75
  }
]

###

Each item that follows carries a reported Cmax.
# Procedure summary: Randomized, open-label, single-dose crossover pharmacokinetic study; plasma concentrations by LC-MS/MS, non-compartmental analysis
# Assay type: in vivo, human
# Details: male, human, plasma; IC: co-administered single oral doses of Forxiga 10 mg and Trajenta 5 mg, fasted healthy males; mean ± SD

[
  {
    "Compound": "CCOc1ccc(Cc2cc([C@@H]3O[C@H](CO)[C@@H](O)[C@H](O)[C@H]3O)ccc2Cl)cc1 [dapagliflozin]",
    "Units of measure": "ng/mL",
    "Cmax": 161
  },
  {
    "Compound": "CC#CCn1c(N2CCC[C@@H](N)C2)nc2c1c(=O)n(Cc1nc(C)c3ccccc3n1)c(=O)n2C [linagliptin]",
    "Units of measure": "ng/mL",
    "Cmax": 3.95
  }
]

###

# Procedure summary: Randomized, open-label, single-dose crossover pharmacokinetic study; plasma concentrations by LC-MS/MS, non-compartmental analysis
# Format: in vivo, human
# Details: male, human, plasma; IC: co-administered single oral doses of Forxiga 10 mg and Trajenta 5 mg, fasted healthy males; 0 to 72 h; mean ± SD
As shown below, each of these compounds has a reported AUC(0-t) value.
Experimental endpoint: AUC(0-t) (ng·h/mL)

[
  {
    "Structure smiles string": "CCOc1ccc(Cc2cc([C@@H]3O[C@H](CO)[C@@H](O)[C@H](O)[C@H]3O)ccc2Cl)cc1",
    "Experimental endpoint": "AUC(0-t)",
    "Experimental value": 456
  },
  {
    "Structure smiles string": "CC#CCn1c(N2CCC[C@@H](N)C2)nc2c1c(=O)n(Cc1nc(C)c3ccccc3n1)c(=O)n2C",
    "Experimental endpoint": "AUC(0-t)",
    "Experimental value": 155
  }
]
